procedure-text: chemical genetic growth profiling, strain panel (AID 1159580);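 further: tested at 20 µM; growth read once vehicle control cultures reached saturation at 30 °C; 1 = growth at the plate median or of vehicle wells; lower values mean less growth of the strain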
experimental-setup: S. cerevisiae deletion strains, growth OD, locus YDR392W, strain spt3, active compounds read low
In all, about 5,500 compounds went through this assay and about 2,000 (36%) were called active. Inconclusive results (about 18%) are left out. The list shows a part of the results.
value-kind: normalized growth
Keep it simple and answer with nothing but the number.

Examples from the recorded data:
[
  {
    "compound": "COc1ccc2c(c1)C1(C)CCC(=O)CC1CC2 (configuration not stated)",
    "recorded-value": 0.996
  },
  {
    "compound": "COc1cc2c(cc1OC)C(=O)C(CC1CCN(Cc3ccccc3)CC1)C2 (configuration not stated)",
    "recorded-value": 1.09
  },
  {
    "compound": "CCC1(c2ccccc2)C(=O)NCNC1=O",
    "recorded-value": 0.958
  },
  {
    "compound": "C[C@@H]1O[C@@H](O[C@H]2[C@@H](Oc3cc(O)c4c(c3)O[C@H](c3ccc(O)cc3)CC4=O)O[C@H](CO)[C@@H](O)[C@@H]2O)[C@H](O)[C@H](O)[C@H]1O",
    "recorded-value": 0.934
  },
  {
    "compound": "O=C(/C=C/c1ccccc1)O[C@H]1C[C@@H](O)[C@]2(O)C=CO[C@@H](O[C@@H]3O[C@H](CO)[C@@H](O)[C@H](O)[C@H]3O)[C@H]12",
    "recorded-value": 0.927
  }
]

Enquiry: Which normalized growth is reported for this compound? "COc1ccc2c(c1)OC[C@@H](Cc1ccc(OC)c(OC)c1)[C@@H]2O"
Return: 0.91

Enquiry: Next record, please: "Cc1ccc(O)cc1"
Return: 0.916

Enquiry: Next record, please: COc1cccc2c1CCC1CC(=O)CCC21C (configuration not stated)
Return: 0.873

Enquiry: Next record, please: "NC(=O)N1c2ccccc2CC(=O)c2ccccc21"
Return: 0.956

Enquiry: Next record, please: "NC/C=C/C(=O)O"
Return: 0.965

Enquiry: Next record, please: "C[CH2][Hg][S]c1ccccc1C(=O)O"
Return: 0.0928

Enquiry: Next record, please: "CCCCOc1ccc(CC(=O)NO)cc1"
Return: 0.935

Enquiry: Next record, please: "CN=C(NC#N)NCCSCc1nc[nH]c1C"
Return: 0.905

Enquiry: Next record, please: O=C1CC(c2ccc(O)c(O)c2)Oc2cc(O)cc(O)c21 (configuration not stated)
Return: 0.967

Enquiry: Next record, please: "CC[C@H]1OC(=O)C[C@@H](O)[C@H](C)[C@@H](O[C@@H]2O[C@H](C)[C@@H](O[C@H]3C[C@@](C)(O)[C@@H](O)[C@H](C)O3)[C@H](N(C)C)[C@H]2O)[C@@H](CC=O)C[C@@H](C)C(=O)/C=C/C(C)=C/[C@@H]1CO[C@@H]1O[C@H](C)[C@@H](O)[C@@H](OC)[C@H]1OC"
Return: 1.02

Enquiry: Next record, please: CNC1(C)C2CCC(C2)C1(C)C (configuration not stated)
Return: 0.93

Enquiry: Next record, please: "Cc1cc(C(C)(C)CC(C)(C)C)ccc1OCCOCC[N+](C)(C)Cc1ccccc1"
Return: 0.0691

---

Each item that follows carries a reported normalized growth.
procedure-text: chemical genetic growth profiling, strain panel (AID 1159580);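 further: tested at 20 µM; growth read once vehicle control cultures reached saturation at 30 °C; 1 = growth at the plate median or of vehicle wells; lower values mean less growth of the strain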
experimental-setup: S. cerevisiae deletion strains, growth OD, locus YHR094C, strain hxt1, active compounds read low
The whole screen tested about 5,500 compounds, of which about 2,000 (36%) were called active. About 18% were inconclusive and are not listed. The list shows a part of the results.
Keep it simple and answer with nothing but the number.

Examples from the recorded data:
[
  {
    "compound": "CC(C)=CCc1c(O)cc(C)oc1=O",
    "recorded-value": 0.978
  },
  {
    "compound": "c1ccc(CN(CC2=NCCN2)c2ccccc2)cc1",
    "recorded-value": 1
  },
  {
    "compound": "O=C1CC(c2ccccc2)Oc2ccccc21 (configuration not stated)",
    "recorded-value": 0.972
  },
  {
    "compound": "CN1Cc2c(ccc3c2OCO3)C2C(O)Cc3cc4c(cc3C21)OCO4 (configuration not stated)",
    "recorded-value": 1.01
  },
  {
    "compound": "CCCCOc1ccc(OCCCN2CCOCC2)cc1",
    "recorded-value": 0.997
  }
]

Enquiry: Which normalized growth is reported for this compound? "O=C(O)c1cc(=O)c2ccc(Cl)cc2[nH]1"
Return: 0.992

Enquiry: Next record, please: "C/C=C(/C(=C/C)c1ccc(O)cc1)c1ccc(O)cc1"
Return: 0.968

---

procedure-text: chemical genetic growth profiling, strain panel (AID 1159580);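 further: tested at 20 µM; growth read once vehicle control cultures reached saturation at 30 °C; 1 = growth at the plate median or of vehicle wells; lower values mean less growth of the strain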
experimental-setup: S. cerevisiae deletion strains, growth OD, locus YMR307W, strain GAS1, active compounds read low
The campaign covered roughly 5,500 compounds. About 2,000 (36%) were called active. Another 18% or so got no clear call; they are omitted. This is one part of the list.
Each item that follows carries a reported normalized growth.

Examples from the recorded data:
[
  {
    "compound": "Cc1cc(NC(=O)C(Cl)(Cl)Cl)n(-c2ccccc2)n1",
    "recorded-value": "1.02 (inactive)"
  },
  {
    "compound": "COc1ccc(C(=O)c2ccccc2O)c(O)c1",
    "recorded-value": "0.852 (inactive)"
  },
  {
    "compound": "Cc1cccc(C#Cc2ccccc2)n1",
    "recorded-value": "0.919 (inactive)"
  }
]

Enquiry: Which normalized growth is reported for this compound? CC1(C)C2CC[C@]3(C)C(C(=O)C=C4[C@H]5C[C@@](C)(C(=O)O)CC[C@]5(C)CC[C@]43C)[C@@]2(C)CC[C@@H]1O (stereo not given in full)
Return: 1.02 (inactive)

Enquiry: Next record, please: "O=C1C[C@@H](c2ccc(O)cc2)Oc2cc(O)cc(O)c21"
Return: 0.994 (inactive)

Enquiry: Next record, please: "C[C@@H]1O[C@@H](O[C@H]2[C@@H](Oc3cc(O)c4c(c3)O[C@H](c3ccc(O)cc3)CC4=O)O[C@H](CO)[C@@H](O)[C@@H]2O)[C@H](O)[C@H](O)[C@H]1O"
Return: 1.04 (inactive)

Enquiry: Next record, please: "C=CCc1ccc2c(c1)OCO2"
Return: 0.995 (inactive)

Enquiry: Next record, please: "O=C(O)COc1cc(Cl)c(Cl)cc1Cl"
Return: 1.02 (inactive)

Enquiry: Next record, please: "Cc1nc(N=Nc2ccc(C(=O)O)cc2)c(COP(=O)(O)O)c(C=O)c1O"
Return: 1.04 (inactive)

Enquiry: Next record, please: O=C1CC(c2ccc(O)cc2)Oc2ccccc21 (stereo not given)
Return: 0.56 (active)

Enquiry: Next record, please: "CCCCOc1cc(C(=O)O)ccc1OC"
Return: 0.956 (inactive)

Enquiry: Next record, please: "CCc1nc(N)nc(N)c1-c1ccc(Cl)cc1"
Return: 0.916 (inactive)

Enquiry: Next record, please: "CCCCOc1ccc(CC(=O)NO)cc1"
Return: 0.998 (inactive)

Enquiry: Next record, please: CC12CCC(C1)C(C)(C)C2NC(=O)c1cccs1 (stereo not given)
Return: 0.834 (inactive)

Enquiry: Next record, please: COc1ccc(C2CC(=O)c3ccc(OC)cc3O2)cc1 (stereo not given)
Return: 0.649 (inactive)

Enquiry: Next record, please: "Cc1cc(=O)c2c(O)cc(O)c(C)c2o1"
Return: 1.05 (inactive)

Enquiry: Next record, please: "Cc1nn(-c2ccccc2)nc1C(=O)NC(=O)N1CCCC1"
Return: 0.927 (inactive)

Enquiry: Next record, please: "O=C1C[C@@H](c2ccccc2)Oc2cc(O)cc(O)c21"
Return: 0.742 (inactive)

Enquiry: Next record, please: "COc1ccccc1N1CCN(CCCCNC(=O)c2ccc3ccccc3c2)CC1"
Return: 0.995 (inactive)

---

Each item that follows carries a reported normalized growth.
procedure-text: chemical genetic growth profiling, strain panel (AID 1159580);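 further: tested at 20 µM; growth read once vehicle control cultures reached saturation at 30 °C; 1 = growth at the plate median or of vehicle wells; lower values mean less growth of the strain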
experimental-setup: S. cerevisiae deletion strains, growth OD, locus YDR150W, strain NUM1, active compounds read low
The whole screen tested about 5,500 compounds, of which about 2,000 (36%) were called active. Roughly 18% stayed inconclusive and do not appear here. The list shows a part of the results.
Keep it simple and answer with nothing but the number.

Examples from the recorded data:
[
  {
    "molecule": "CN(C)/C=C(\\C#N)C(=O)Nc1ccc(F)c(Cl)c1",
    "value-kind": "normalized growth",
    "recorded-value": 0.991
  },
  {
    "molecule": "CO[C@H]1C[C@H](O[C@H]2[C@H](C)[C@@H](OC3O[C@H](C)C[C@H](N(C)C)[C@H]3O)[C@@H](C)C[C@]3(CO3)C(=O)[C@H](C)[C@@H](O)[C@@H](C)[C@@H](C)OC(=O)[C@@H]2C)O[C@@H](C)[C@@H]1O (stereo partly drawn)",
    "value-kind": "normalized growth",
    "recorded-value": 1
  },
  {
    "molecule": "NC(=O)c1ncn([C@@H]2O[C@H](CO)[C@@H](O)[C@H]2O)c1O",
    "value-kind": "normalized growth",
    "recorded-value": 0.997
  },
  {
    "molecule": "c1ccc(CC2=NCCN2)cc1",
    "value-kind": "normalized growth",
    "recorded-value": 0.983
  },
  {
    "molecule": "CN1CCc2cc3c(cc2C1O)OCO3 (stereo not drawn)",
    "value-kind": "normalized growth",
    "recorded-value": 0.987
  },
  {
    "molecule": "CC(=O)OCC(CCn1cnc2cnc(N)nc21)COC(C)=O",
    "value-kind": "normalized growth",
    "recorded-value": 0.993
  },
  {
    "molecule": "CCc1ccc(CCOc2ccc(CC3SC(=O)NC3=O)cc2)nc1 (stereo not drawn)",
    "value-kind": "normalized growth",
    "recorded-value": 1.01
  },
  {
    "molecule": "CC(=O)O[C@]1(C(C)=O)CCC2C3C[C@H](C)C4=CC(=O)CC[C@]4(C)C3CC[C@@]21C (stereo partly drawn)",
    "value-kind": "normalized growth",
    "recorded-value": 0.99
  }
]

Enquiry: Which normalized growth is reported for this molecule? "COc1ccc2c(c1)OC[C@@H](Cc1ccc(OC)c(OC)c1)[C@@H]2O"
Return: 1

Enquiry: Next record, please: CCCCCC(=O)O[C@]1(C(C)=O)CCC2C3CCC4=CC(=O)CC[C@]4(C)C3CC[C@@]21C (stereo partly drawn)
Return: 1.02
